System: SW620 human colorectal cancer cells
Assay: MTT based cell viability assay: potentiation of the growth inhibiting activity of MMS
Settings: Homo sapiens, SW-620, 120 h, read-out: IC50 (nM), potentiation of the growth inhibiting activity of MMS, SW620 cells, 1.7 μg/ml MMS, 5 days (120 hours), MTT
measure.name: IC50 (nM)

structure.as.smiles	IC50 / nM
O=C(c1ccc(F)c(Cn2c(=O)[nH]c(=O)c3ccccc32)c1)N1CCN(C(=O)c2cccs2)CC1	55

1 = O=C(c1cc(F)cc(Cn2c(=O)[nH]c(=O)c3ccccc32)c1)N1CCN(c2ncccn2)CC1
2 = O=C(c1ccccc1)N1CCN(C(=O)c2cc(Cn3c(=O)[nH]c(=O)c4cc(F)ccc43)ccc2F)CC1
Query: Endpoint returns the identifier whose IC50 is numerically larger, either 1 or 2 . Give the label under which the chosen entry appears.
Response: 1

###

Tested on: SW620 human colorectal cancer cells
Experiment: MTT based cell viability assay: potentiation of the growth inhibiting activity of MMS
Settings: Homo sapiens, SW-620, 120 h, read-out: IC50 (nM), potentiation of the growth inhibiting activity of MMS, SW620 cells, 1.7 μg/ml MMS, 5 days (120 hours), MTT
measure.name: IC50 (nM)

structure.as.smiles	IC50 [nM]
O=C(c1cccs1)N1CCN(C(=O)c2cc(Cn3c(=O)[nH]c(=O)c4cc(Cl)ccc43)ccc2F)CC1	4.5

P = O=C(c1ccc(F)c(Cn2c(=O)[nH]c(=O)c3cc(Cl)ccc32)c1)N1CCN(C(=O)C2CCCC2)CC1
Q = O=C(c1ccccc1)N1CCN(C(=O)c2cc(Cn3c(=O)[nH]c(=O)c4cc(Cl)ccc43)ccc2F)CC1
R = O=C(c1cc(Cn2c(=O)[nH]c(=O)c3c(F)cccc32)ccc1F)N1CCN(C(=O)C2CCC2)CC1
S = O=C(c1cc(Cn2c(=O)[nH]c(=O)c3c(F)cccc32)ccc1F)N1CCN(CC2CCCCC2)CC1
Query: List by increasing IC50. Please list the labels according to the requested order.
Response: S, R, Q, P

###

Molecular target: PARP-1 enzyme (Homo sapiens, UniProt P09874)
Construct: purchased Trevigen, Inc. 4676-096-K
Sequence (P09874 whole entry): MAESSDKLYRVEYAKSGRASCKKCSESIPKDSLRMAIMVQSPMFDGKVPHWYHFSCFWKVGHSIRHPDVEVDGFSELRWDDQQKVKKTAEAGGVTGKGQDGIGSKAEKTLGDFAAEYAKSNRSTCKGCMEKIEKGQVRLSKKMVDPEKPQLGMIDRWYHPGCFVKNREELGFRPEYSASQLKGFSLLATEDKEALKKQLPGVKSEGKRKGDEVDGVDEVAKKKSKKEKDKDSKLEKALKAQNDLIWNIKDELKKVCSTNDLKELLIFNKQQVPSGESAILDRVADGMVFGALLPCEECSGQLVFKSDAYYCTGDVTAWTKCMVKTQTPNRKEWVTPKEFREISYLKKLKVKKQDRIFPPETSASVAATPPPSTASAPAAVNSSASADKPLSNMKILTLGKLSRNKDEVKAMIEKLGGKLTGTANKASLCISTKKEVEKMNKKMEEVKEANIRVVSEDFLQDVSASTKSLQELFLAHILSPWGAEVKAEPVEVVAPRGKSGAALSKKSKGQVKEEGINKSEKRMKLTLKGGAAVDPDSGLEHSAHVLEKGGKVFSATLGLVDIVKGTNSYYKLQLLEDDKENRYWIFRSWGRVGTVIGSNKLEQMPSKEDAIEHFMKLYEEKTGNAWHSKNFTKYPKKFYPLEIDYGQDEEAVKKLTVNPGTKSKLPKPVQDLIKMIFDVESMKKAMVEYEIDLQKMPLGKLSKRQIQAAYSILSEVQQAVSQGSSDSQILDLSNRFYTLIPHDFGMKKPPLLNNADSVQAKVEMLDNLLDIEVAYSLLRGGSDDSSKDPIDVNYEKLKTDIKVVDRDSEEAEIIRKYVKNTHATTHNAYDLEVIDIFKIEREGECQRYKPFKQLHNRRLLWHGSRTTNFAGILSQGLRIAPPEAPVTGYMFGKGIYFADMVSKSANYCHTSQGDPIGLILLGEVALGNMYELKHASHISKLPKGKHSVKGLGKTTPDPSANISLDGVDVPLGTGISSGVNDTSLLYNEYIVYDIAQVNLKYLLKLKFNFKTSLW
Test: PARP-1 enzymatic activity assay (Trevigen 96-well kit 4676-096-K)
Format: biochemical
Conditions: 0.5 unit PARP-1, histone pre-coated plate, 60 min at room temperature; read-out: IC50 (nM), inhibitory effect on PARP-1 enzymatic activity
measure.name: IC50 (nM)

structure.as.smiles	IC50 (nM)
O=C(c1cc(Cn2c(=O)[nH]c(=O)c3c(F)cccc32)ccc1F)N1CCN(c2ccccn2)CC1	1.74
O=C(c1cc(Cn2c(=O)[nH]c(=O)c3ccccc32)ccc1F)N1CCN(C(=O)C2CCC2)CC1	0.88

I = O=C(c1cc(Cn2c(=O)[nH]c(=O)c3cc(F)ccc32)ccc1F)N1CCN(C(=O)C2CCCCC2)CC1
II = O=C(c1cccc(Cn2c(=O)[nH]c(=O)c3ccccc32)c1)N1CCN(C(=O)C2CCCC2)CC1
III = O=C(c1cccc(Cn2c(=O)[nH]c(=O)c3ccccc32)c1)N1CCN(c2ccccn2)CC1
Query: List by increasing IC50. Please list the labels according to the requested order.
Response: I, II, III

I = O=C(c1cccc(Cn2c(=O)[nH]c(=O)c3ccccc32)c1)N1CCN(c2ncccn2)CC1
II = O=C(c1cc(Cn2c(=O)[nH]c(=O)c3c(F)cccc32)ccc1F)N1CCN(c2nccs2)CC1
Query: Endpoint returns the identifier whose IC50 is numerically larger, either I or II . Give the label under which the chosen entry appears.
Response: II
